assay_remarks: Pharmacokinetics after single p.o. dose in NOD.ShiLt/J mice (plasma LC-MS/MS)
Assay type: in vivo, mouse
condition: mouse, plasma, po, 30 mg/kg p.o., mean ± SD
reported_property: Cmax (ng/mL)
Only the number, expressed in ng/mL, is required.

Quick note, Cmax for COc1cccc(CNc2ccc(S(=O)(=O)Nc3nc4ccccc4s3)cc2)c1O landed at 14300

* * *

assay_remarks: Pharmacokinetics after single p.o. dose in NOD.ShiLt/J mice (plasma LC-MS/MS)
Assay type: in vivo, mouse
condition: mouse, plasma, po, 30 mg/kg p.o., mean ± SD
reported_property: AUC(0-t) (ng·h/mL)
Only the number, expressed in ng·h/mL, is required.

Quick note, AUC(0-t) for COc1cccc(CNc2ccc(S(=O)(=O)Nc3nc4ccccc4s3)cc2)c1O landed at 13200
